System: IL-1β cytokine output from THP-1s
Assay: THP-1 AlphaLISA IL-1β cytokine assay
Type: cell-based, human
Details: Homo sapiens, THP-1, PMA-differentiated THP-1 cells, LPS 24 hr then Nigericin 1 hour; read-out: IL-1β (IC50)
Procedure: Measuring Inhibitory Effects on IL-1β and IL-6 Cytokine Output from THP-1s The cytokine inhibition profiles of compounds of formula (IW-1) were determined in a differentiated THP-1 cell assay. […] Reagents from each of the IL-1β and IL-6 commercial kits (Perkin Elmer) were prepared and run according to the manufacturer's instructions. Subsequently, fluorescence signal detection in a microplate reader was measured (EnVision® Multilabel Reader, Perkin Elmer). […]
The threshold is 6 µM. Values of IC50 beneath it are tagged Criterion met; values meeting or exceeding it are tagged Criterion not met.

Problem: For the compound C=C(CC(=O)OCCCCCCCC)C(=O)OC(C)C(=O)O (stereo not shown) , is IC50 under 6 µM? Criterion not met

Input C=C(CC(=O)OC1CCCCCCC1)C(=O)OC1CS(=O)(=O)C1 ; condition: IC50 strictly below 6 µM. Does it hold? Criterion met

Does C=C(CC(=O)OCCCCCCCC)C(=O)OC(C)CC#N (stereo not shown) have IC50 strictly under 6 µM? Criterion not met

Field: below-cutoff. Rule: recorded IC50 strictly less than 6 µM. Subject: C=C(CC(=O)O[C@@H](C)C1CCCCC1)C(=O)OCC(=O)O Criterion not met

# check: IC50 < 6 µM for C=C(CC(=O)O[C@H](C)CCCCCC)C(=O)O[C@H](CC(=O)O)C(F)(F)F Criterion met

Could you please tell me whether IC50 recorded for C=C(CC(=O)O[C@H](C)CCCCCC)C(=O)OCCN1CCCC1=O is less than 6 µM? Criterion not met

Field: below-cutoff. Rule: recorded IC50 strictly less than 6 µM. Subject: C=C(CC(=O)OC1CCCCC1)C(=O)OCCc1nnn[nH]1 Criterion not met

Item C=C(CC(=O)O[C@@H](C)CCCCCC)C(=O)OC(C)Cc1nnn[nH]1 (stereo partly shown) : IC50 beneath 6 µM, strictly? Criterion not met

Record C=C(CC(=O)OC1CCCCCCC1)C(=O)OCC(=O)O : is its IC50 strictly below 6 µM? Criterion not met

Here's an entry: C=C(CC(=O)OCCCCCCCC)C(=O)OCCN1CCS(=O)(=O)CC1 . Is its IC50 below 6 µM? Criterion not met

Lab note: confirm whether the reported IC50 for this compound is below 6 µM, equality not counting. compound: C=C(CC(=O)OCCCCCCCC)C(=O)OC(C)OC(C)=O (stereo not shown) Criterion not met

Consider the compound C=C(CC(=O)OCCCCCCCC)C(=O)OCCNS(C)(=O)=O . Is its IC50 strictly less than 6 µM? Criterion not met

Lab note: confirm whether the reported IC50 for this compound is below 6 µM, equality not counting. compound: C=C(CC(=O)OCCCCCC)C(=O)OC1COC1 Criterion not met

Would you kindly verify if IC50 of C=C(CC(=O)OC1CCCCC1)C(=O)OCC(=O)O is strictly less than 6 µM? Criterion not met

State whether 6 µM exceeds IC50 recorded for C=C(CC(=O)O[C@@H](C)CCCCCC)C(=O)OCc1nn[nH]n1 . Criterion met

Input C=C(CC(=O)OCc1ccc(F)cc1)C(=O)OCCC(=O)O ; condition: IC50 strictly below 6 µM. Does it hold? Criterion not met

Please check: IC50 for C=C(CC(=O)OC1CCCCC1)C(=O)OCc1nnn(C)n1 , strictly under 6 µM or not? Criterion not met

Lab log: compare recorded IC50 with 6 µM; is it strictly lower for C=C(CC(=O)OC1CCCCC1(C)C)C(=O)OCC(=O)O (stereo not shown) ? Criterion not met

Hello, I'm reviewing records and need to know if IC50 of C=C(CC(=O)O[C@H](C)CCCCCC)C(=O)O[C@H]1[C@@H]2CC[C@H]1CN(S(C)(=O)=O)C2 is below 6 µM. Could you check? Criterion met

Hello, I'm reviewing records and need to know if IC50 of C=C(CC(=O)OCCCCCCCC)C(=O)OCCN(C)C is below 6 µM. Could you check? Criterion met

Is the reported IC50 for C=C(C(=O)O[C@H]1CCOC1)C(C)C(=O)OCCCCCCCC (stereo partly shown) strictly below 6 µM? Criterion not met

----------
I'd appreciate it if you could supply concentration at 8 h values for the items below.
assay: Mouse pharmacokinetic study, oral administration; type: in vivo; conditions: male, C57BL/6, mouse, plasma, po, 100 mg/kg, plasma, male C57BL/6 mice, oral gavage 100 mg/kg, 8 h; read-out: Parent compound concentrations following oral administration, Time 8 h
Supply the numeric figure in ng/mL, leaving out any unit text.

Field request: concentration at 8 h | item: C=C(CC(=O)OC1CC2(CCC2)C1)C(=O)OCC(=O)O [Example 96] 443

Dear colleague, I am looking for the recorded concentration at 8 h of the following molecule: C=C(CC(=O)O[C@H](CC)CCCCC)C(=O)OCC(=O)O [Example 178] 639

Endpoint output: concentration at 8 h of C=C(CC(=O)O[C@H](C)CCCCCC)C(=O)OCc1nn[nH]n1 [Example 161] . Value? 16

# lookup: concentration at 8 h of C=C(CC(=O)OC(C)(C)CCCCC)C(=O)OCC(=O)O [Example 193] 19

----------
tested on: IL-6 cytokine output from THP-1s; test: THP-1 AlphaLISA IL-6 cytokine assay; format: cell-based, human; settings: Homo sapiens; PMA-differentiated THP-1 cells, LPS 24 hr then Nigericin 1 hour
Readout Name: IC50 (µM)
Reply numerically in µM, unit not repeated.

Return reported IC50; argument: C=C(CC(=O)OC1CCCCC1)C(=O)OC1CS(=O)(=O)C1 1.4

Please give the measured IC50 for this compound: C=C(CC(=O)OC1CCCCC1)C(=O)OCCS(C)(=O)=O 5

Can you look up the measured IC50 of C=C(CC(=O)OCCCCCCCC)C(=O)OCCN(C)C for me? 1.4

What does the data say about its IC50? Entry: C=C(CC(=O)O[C@H](C)CCCCCC)C(=O)OC(C)CS(C)(=O)=O (stereo partly shown) 3.5

Data request, read-out IC50, for C=C(CC(=O)OCCCOc1ccccc1)C(=O)OCCS(C)(=O)=O 3.4

Quick one: IC50 for C=C(CC(=O)OC1CCCCC1)C(=O)OCC(=O)O ? 33.8

Reported IC50, compound C=C(CC(=O)OC)C(=O)OC [dimethyl itaconate, reference compound] : ____ 100

----------
test system: IL-1β cytokine output from THP-1s; experiment: THP-1 AlphaLISA IL-1β cytokine assay; format: cell-based, human; conditions: Homo sapiens, THP-1, PMA-differentiated THP-1 cells, LPS 24 hr then Nigericin 1 hour; read-out: IL-1β (IC50)
Readout Name: log10 IC50 (log10 of the value in µM)
Values reflect log10 of reported IC50 (µM).

State the recorded log10 IC50 for this entry: C=C(CC(=O)OC1C(C)(C)CCCC1(C)C)C(=O)OCC(=O)O [Example 197] 1.33

Data request, read-out log10 IC50, for C=C(CC(=O)O[C@@H](C)CCCCCC)C(=O)OCCc1nnn[nH]1 [Example 129] 0.74

Look up log10 IC50: C=C(CC(=O)OC(C)C)C(=O)OCCS(C)(=O)=O [Example 22] 1.19

Find the recorded log10 IC50 belonging to C=C(CC(=O)OC(C)C1CCCCCC1)C(=O)OCC(=O)O (stereo not drawn) [Example 151] and report it. 1.01

Suppose we examine the compound C=C(CC(=O)OCC(C)(C)C)C(=O)OCCC(=O)O [Example 83] ; what log10 IC50 value has been reported? 1.53

So what's the measured log10 IC50 for this one? C=C(CC(=O)OCCCCCCCC)C(=O)OC1CN(C(C)=O)C1 [Example 50] 0.43

Which log10 IC50 is listed for C=C(CC(=O)O[C@H](C)CCCCCC)C(=O)OCCS(C)(=O)=O [Example 55] ? 0.71

Fill in: log10 IC50 of C=C(CC(=O)OCCCCCCCC)C(=O)OCCC(=O)N(CC)CC [Example 109] is ___ 1.03

Reported log10 IC50 for C=C(CC(=O)O[C@H](C)CCCCCC)C(=O)OCCC(=O)O [Example 88] : what is it? 1.40

----------
Assay: Mouse pharmacokinetic study, oral administration
Format: in vivo
Conditions: male, C57BL/6, mouse, plasma, po, 100 mg/kg, plasma, male C57BL/6 mice, oral gavage 100 mg/kg, 2 h; read-out: Parent compound concentrations following oral administration, Time 2 h
Protocol: Pharmacokinetic studies were carried out in 6-8-week-old male C57BL/6 mice having free access to food and water. […] For both intravenous and oral routes, the mice were restrained manually at the designated time points, with ca. 110 μL of blood being taken into K2EDTA tubes via the facial vein. Blood samples were put on ice and centrifuged to obtain plasma samples from which the concentration at each time point was measured by LC-MS/MS.
Readout Name: concentration at 2 h

I'd like to know its concentration at 2 h. The compound in question is C=C(CC(=O)OC1C(C)(C)CC1(C)C)C(=O)OCC(=O)O 971 ng/mL

// returns reported concentration at 2 h for input C=C(CC(=O)OC(C)(C)CCCCC)C(=O)OCC(=O)O 2120 ng/mL

Look at this compound and give its reported concentration at 2 h. C=C(CC(=O)OC)C(=O)OC [dimethyl itaconate, reference compound] < 24 ng/mL

For the compound shown here, C=C(CC(=O)OC(C)(C)CCCCCC)C(=O)OCC(=O)O , give the reported concentration at 2 h. 8740 ng/mL
